# ASSAY_OVERVIEW: yeast display, Sf9 membrane polyspecificity reagent, FACS + sequencing; frameworks hold sequencing errors

CHAIN | polyreactivity (PSR sort gate)
QVQLVESGGGLVQEGGSLRLSCAASGSIFGWYAMGWYRQAPGKEWELVAAIRRGGSTNYADSVKGRFTISRDNAKNTVYLQMNSLKAEVTAVYYCAAGKSGYSKRIFRYSFDYWGQGTQVTVSS | high polyreactivity
QVQLVESGGGLVQAGGSLRLSCAASGSISVANAMGWYRQAPGKERELVAGITSSGSTYYADSVKGRFTISRDNAKNTVYLQMNSLKPEDTAVYYCNADVHYSTFYTVVVSLYYWGQGSQVTVSS | low polyreactivity
QVQVVESGGGLFQAGGSLRLSSAASGSIFARNALGWYRQAPGKERDLVAGITRSTGDTYYADSVKGRFTISRDNAKYTVSFQMNSLKQEDTAVYYCARDGRRTPYKYEYWGQGTQVTVSS | low polyreactivity
QVQLVESGGGLVQAGGSLRLSCAASGILFSAHAMGWYRQAPGKERELVAAISKSGSRTYYADSVKGRFTISRDNAKNTVYLQMNSLKPEDTAVYYCNAVTYSRRYAYYYWGQGTQVTVSS | high polyreactivity
QVQLVESGGGLVQAGGSLRLSCAASGSTFTANAMGWYRQAPGKERELVAAITNSDGSTYYADSVKGRFTISRDNAKNTVYLQMNSLKPEDTAVYYCAAPADSGITQVWQALSDYWGQGTQVTVSS | low polyreactivity

All values here come from the nanobody polyreactivity screen of Harvey et al. (2022).
